TGT: LgTrip 3546 (with His tag; SEQ ID NO: 51)
Sequence (chain, as listed by the source): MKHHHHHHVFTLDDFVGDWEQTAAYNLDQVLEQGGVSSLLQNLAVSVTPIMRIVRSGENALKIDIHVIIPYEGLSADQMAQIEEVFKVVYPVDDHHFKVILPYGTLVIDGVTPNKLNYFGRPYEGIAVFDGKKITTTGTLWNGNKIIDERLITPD
MEASUREMENT PROTOCOL: luminescence complementation
CONDITION PARAMETERS: modification not given
RECORDED METRIC: Kd (µM)

# BINDER, UNIT DESCRIPTOR, VALUE REPORTED
rows = [
    ("DKMLFRVTIGKWK [739]", "µM", 0.2),
    ("KLMLFRVTINSWK [653]", "µM", 0.16),
    ("GKMLFRVTIQKWK [671]", "µM", 0.06),
]

I. DKLLFKVTIQKYK [747]
II. GKMWFRVTINSWK [617]
(Q) Between the entries labelled I and II , which has a larger Kd value on record? Your answer should be the label of the entry you select.
(A) II
(II: 0.32 µM, I: 0.1 µM)
